- Test system: U2OS
- Protocol Summary: Incucyte cell viability with U2OS; further: unitless GR value; below 1 slowed growth and below 0 cell loss
- Type: toxicity, cell-based
- Measurement Conditions: human, 12 h, 10 µM, compound concentration 10 uM, replicate number 1
Could you mark each record true if its Growth Rate falls strictly under 0.9, and false if it equals or exceeds it?

{"columns": ["Chemical String", "Assay Target", "Class"],
 "data": [
  ["Fc1ccc(Cl)cc1-c1nc(Nc2ccncc2)c2nccnc2n1", "U2OS", "true"],
  ["CC(=O)N1CCC(c2ccc(C(=O)NC3=NCCN3)cc2C(F)(F)F)CC1", "U2OS", "false"],
  ["Cc1cc(-c2nc(-c3ccc(OC(F)(F)F)cc3)no2)nn1Cc1ccnc(N2CCN(C3CC3)CC2)c1", "U2OS", "false"],
  ["CC1(C)CC(=O)c2c(SCCO)sc(-c3nccs3)c2C1", "U2OS", "true"],
  ["CC(C)n1cc(-c2ccc(N3CCN(C)CC3)c(NC(=O)c3ccc(-c4ccncc4)o3)c2)cn1", "U2OS", "false"]
]}

----------
- Tested on: U2OS
- Protocol Summary: Incucyte cell viability with U2OS; further: unitless GR value; below 1 slowed growth and below 0 cell loss
- Assay type: toxicity, cell-based
- Measurement Conditions: human, 24 h, 10 µM, compound concentration 10 uM, replicate number 2
Collected Growth Rate values appear next to each entry.

{"columns": ["Compound", "Growth Rate"],
 "data": [
  ["COc1ccccc1[C@@H]1CNCCC12CCN(C(=O)[C@](OC)(c1ccccc1)C(F)(F)F)CC2", 0.82],
  ["CNCc1ccc(-c2cc(-c3nc(-c4ccc(S(=O)(=O)C(C)C)cc4)cnc3N)on2)cc1 [BERZOSERTIB]", 0.19],
  ["O=C1CCC(N2Cc3cc(CNC(=O)C(F)(F)c4ccc(Cl)cc4)ccc3C2=O)C(=O)N1 (configuration not stated)", 0.85],
  ["O=C(N[C@@H]1C2CCN(CC2)[C@H]1Cc1cccnc1)c1cc2ccccc2o1 [BRADANICLINE]", 0.96],
  ["COc1cc(N2CCN(C)CC2)ccc1Nc1ncc2c(n1)N(C)c1ccccc1C(=O)N2CC(F)(F)F", 0.83],
  ["O=C(Nc1c(-c2cccs2)nc2ccc(Cl)cn12)c1ccc(Cl)cc1", 0.56],
  ["COc1ccc(CC[C@@H](OC(=O)[C@@H]2CCCCN2C(=O)[C@H](c2cc(OC)c(OC)c(OC)c2)C2CCCCC2)c2cccc(OCCN3CCOCC3)c2)cc1OC", 0.73],
  ["O=C(CCSCc1ccco1)NNC(=O)N1Cc2ccccc2Oc2ccc(Cl)cc21", 0.92],
  ["CN(C)CC#Cc1ccc2[nH]c3c(c2c1)-c1nc(N)ncc1CCC3", 0.36],
  ["CC(C)CC(=O)Nc1cncc(-c2ccc3[nH]nc(-c4nc5c(-c6cccc(F)c6)cncc5[nH]4)c3c2)c1 [LORECIVIVINT]", -0.42],
  ["C#Cc1cnc2[nH]cc(-c3cccc4c3CCN4C(=O)[C@@H]3CCCN3C#N)c2c1", -0.56],
  ["Cn1nc(C(=O)NCc2ccc(C(=O)O)cc2)cc1-c1ccc2[nH]ccc2c1 [BI 4395]", 0.9],
  ["COc1cc(CN(CCN)C(=O)N[C@@H](C)c2ccccc2)ccc1OCc1ccccc1.Cl", 1],
  ["COCCN1CCN(CCn2ccc(Nc3ncc4c(n3)-c3c(nn(C)c3-c3ccccc3)C[C@H]4C)n2)CC1", 0.5],
  ["CCN1CCN(Cc2ccc(NC(=O)Nc3ccc(Oc4cc(NC)ncn4)cc3)cc2C(F)(F)F)CC1 [AST-487]", 0.08],
  ["Cc1cccc(F)c1C(=O)Nc1cnc(-c2cc3c(cc2Cl)OC(F)(F)O3)cn1 [ZEGOCRACTIN]", 0.92],
  ["Cl.O=C(NCCN1CCC2(CC1)C(=O)NCN2c1cccc(F)c1)c1ccc2ccccc2c1", 0.17]
]}

All figures here come from ChEMBL document CHEMBL5303304.
